- Tested on: DU-145 prostate
- test_method_notes: NCI-60 one-dose screen, 48 h (100 = growth as untreated, 0 = no growth, -100 = all killed)
- run_parameters: 10 µM unless noted
This is part of a sample that, as a whole, favours compounds with a hit. Of some 83,000 tested, about 20% had one in any assay. Active and inactive are the calls of the source. Rule for the calls: active = growth percent below 10; inactive = the rest.
property_label: growth

1) N=C(N)c1nn(C2OC(CO)C(O)C2O)c2nc[nH]c(=O)c12 (stereo not drawn); -49.1% (active)
2) Cc1ccc(Cc2ccc(C)cc2)cc1; 107% (inactive)
3) O=c1n(CC2CO2)c(=O)n(CC2CO2)n1CC1CO1 (stereo not drawn); 38.4% (inactive)

====

- System: COLO 205 colon
- test_method_notes: NCI-60 one-dose screen, 48 h
- run_parameters: 10 µM unless noted
About 83,000 compounds went through this panel and 20% of them were active in at least one assay; those are over-represented in the sample as a whole. Calls of active or inactive are those of the source. Rule for the calls: active = growth percent below 10; inactive = the rest.
Possible outcomes: active, inactive

1) COC1C(=O)CCC2(CO2)C1(O)C1(C)OC1CCC(C)C (configuration not stated); inactive
2) O=S(=O)(O)c1cccc2cccnc12; inactive
3) CCN(Cc1ccc(Cl)c(Cl)c1)c1ccc2nc(N)nc(N)c2c1C; active
4) c1cc(CNCCNCc2ccncc2)ccn1; inactive
5) O=S(Cc1ccccc1)/C(=C/NC(=S)Nc1ccccc1)c1ccccc1 (configuration not stated); inactive
6) O=C(NCCc1ccccc1)/C(=C\c1ccc(Cl)cc1Cl)NC(=O)c1ccccc1; inactive
7) O=S(=O)(c1ccc(NC(=S)NCc2cccnc2)cc1)N1CCCCC1; inactive
8) CCN(CC)CCOC(=O)Nc1c(C(C)C)cccc1C(C)C; inactive
9) Cc1ccc(C(C)C)c(OCC(=O)O)c1; inactive
10) O=Cc1ccc(F)cc1; inactive
11) COc1ccc(C)cc1NC(=O)SC(C)C; inactive
12) CC(CO)(CO)C(=O)O; inactive
13) Cc1ccc(N2C(=O)c3cccc4c(N)c(S(=O)(=O)O)cc(c34)C2=O)cc1; inactive
14) CCCNS(=O)(=O)c1ccc(Cl)cc1; inactive
15) COc1cc(C(=O)O)c(O)c(C(C)(C)C)c1; inactive
16) CCOC(=O)CNC(=O)Sc1ccc(C(C)(C)C)cc1; inactive
17) Nc1cc2c(cc1Cl)C(=O)c1ccccc1C2=O; inactive
18) Cc1[nH]nc(C(N)=O)c1[N+](=O)[O-]; inactive
19) c1ccc2[nH]c(Cc3nc4ccccc4[nH]3)nc2c1; inactive
20) COC1(OC)C2(Cl)C(Cl)=C(Cl)C1(Cl)C1COCC12 (configuration not stated); inactive
21) Cc1ccc(S(N)(=O)=O)cc1Cl; inactive
22) Nc1nnc2cc(F)ccc2n1; inactive

====

- Test system: SF-295 CNS
- test_method_notes: NCI-60 one-dose screen, 48 h (100 = growth as untreated, 0 = no growth, -100 = all killed)
- run_parameters: 10 µM unless noted
About 83,000 compounds went through this panel and 20% of them were active in at least one assay; those are over-represented in the sample as a whole.
property_label: growth (%)

1. CCCCN(C=S)CCCC; 99.1
2. CCN(CC)CCN1CNC(=S)NC1; 102
3. O=C1Nc2ccccc2/C1=C\c1ccccc1O; 96.6
4. Cn1c(=O)c2nc3c(=O)n(C)c(=O)n(C)c3nc2n(C)c1=O; 107
5. CC1CN(CCO)CC(C)O1 (configuration not stated); 104
6. Cc1nc(C)c(C(=O)O)cc1C(=O)O; 118
7. C#CC(O)c1ccccc1 (configuration not stated); 110

====

- Test system: SN12C renal
- test_method_notes: NCI-60 one-dose screen, 48 h (100 = growth as untreated, 0 = no growth, -100 = all killed)
- run_parameters: 10 µM unless noted
- Method: Growth inhibition of the SN12C human tumor cell line is measured as a screen for anti-cancer activity. Cells are grown in 96 well plates and exposed to the test compound for 48 hours. Compounds are tested at a single concentration, which is 10^-5 M for most compounds. The reported endpoint is percent growth (GI% or GIPRCNT), where numbers from 0 - 100% represent growth inhibition, and numbers from -100% - 0 represent cell death. For example, a value of 40 represents 60% growth inhibition. […]
This is part of a sample that, as a whole, favours compounds with a hit. Of some 83,000 tested, about 20% had one in any assay.
The following compounds are shown together with reported growth values.
property_label: growth (%)

1. O=C1NCC2CCCC1C2 (stereo not drawn); 101
2. CCCCOC(=O)c1ccccc1O; 107
3. C/C=C/C1OCC(CC)C(CCC)O1 (stereo not drawn); 99.5
4. Cc1[nH]nc(C(N)=O)c1[N+](=O)[O-]; 98.4
5. CCOc1ccc2c(c1)c(C)cc(C)[n+]2CC; 64.6
6. Cc1cccc2ccccc12; 100
7. CN(C)c1ccc(O)c2c1CC1CC3C(N(C)C)C(=O)C(C(N)=O)=C(O)C3(O)C(=O)C1=C2O (stereo not drawn); 35.6
8. NNC(=O)c1ccccc1N; 108

====

- Test system: SW-620 colon
- test_method_notes: NCI-60 one-dose screen, 48 h (100 = growth as untreated, 0 = no growth, -100 = all killed)
- run_parameters: 10 µM unless noted
This is part of a sample that, as a whole, favours compounds with a hit. Of some 83,000 tested, about 20% had one in any assay.
property_label: growth (%)

1. CC(=O)c1cccc(O)c1; 101
2. O=C1NCC2CCCC1C2 (configuration not stated); 120
3. COc1cc(-c2ccc(NC(=O)CC(C)=O)c(OC)c2)ccc1NC(=O)CC(C)=O; 104
4. C=CCC(OC(C)=O)c1ccc(C(C)C)cc1 (configuration not stated); 107
5. S=C=Nc1ccc2ccccc2c1; 105
6. c1ccc(-c2ccc3ccccc3c2)cc1; 90.5
7. COC(=O)c1cccc([N+](=O)[O-])c1; 105

====

- System: SN12C renal
- test_method_notes: NCI-60 one-dose screen, 48 h (100 = growth as untreated, 0 = no growth, -100 = all killed)
- run_parameters: 10 µM unless noted
About 83,000 compounds went through this panel and 20% of them were active in at least one assay; those are over-represented in the sample as a whole.
property_label: growth (%)

1) Nc1c(O)c(S(=O)(=O)O)c(O)c2c1C(=O)c1ccccc1C2=O; 28.1
2) Oc1cccnc1CN1CCCC1; 97.6
3) O=C(Nc1ccccc1)c1ccco1; 109

====

- System: HCC-2998 colon
- test_method_notes: NCI-60 one-dose screen, 48 h (100 = growth as untreated, 0 = no growth, -100 = all killed)
- run_parameters: 10 µM unless noted
The panel holds about 83,000 compounds, 20% with a hit somewhere; the sample as a whole holds those more often.
property_label: growth (%)

1. O=C1CSc2ccccc2N1; 99.6
2. CCOc1ccc(C(=O)NCC(C)C)cc1; 114
3. COc1cc(CC#N)c([N+](=O)[O-])cc1OC; 108
4. Nc1cc2ccccc2c(O)c1O; 113
5. CCCCc1ccc2nc(NC(=O)OC)[nH]c2c1; -43.3
6. Cc1ccc2nc(-c3ccc(N=Cc4ccccc4O)cc3)sc2c1; -12.3
7. Cc1cc(CC(=O)NCCO)n(CCO)c(=O)c1; 103
8. COc1cc(-c2ccc(NC(=O)CC(C)=O)c(OC)c2)ccc1NC(=O)CC(C)=O; 100
9. CC(=O)c1cccc(N(C)S(=O)(=O)c2ccc(C)cc2)c1; 82.6
10. CC(C)(N)CO[C@H]1C[C@H]2CC[C@@]1(C)C2(C)C; 102
11. C=CC(C)C(C)(C)O (stereo unspecified); 106
12. COc1cccc(N=CNc2cccc(OC)c2)c1; 98.9
13. CCOc1ccc2c(c1)c(C)cc(C)[n+]2CC; 82.9
14. CC(=O)OC(C)c1cccc(C#N)c1 (stereo unspecified); 107
15. O=C(OCc1ccccc1)n1nnc2ccccc21; 103
16. FC(F)(F)c1cc(NC2=NCCN=C(Nc3cc(C(F)(F)F)cc(C(F)(F)F)c3)SS2)cc(C(F)(F)F)c1; 76.9

====

- System: SW-620 colon
- test_method_notes: NCI-60 one-dose screen, 48 h (100 = growth as untreated, 0 = no growth, -100 = all killed)
- run_parameters: 10 µM unless noted
About 83,000 compounds went through this panel and 20% of them were active in at least one assay; those are over-represented in the sample as a whole.
growth values, listed per item
property_label: growth (%)

1) OCCOc1ccc(-c2cc(-c3ccccn3)nc(-c3ccccn3)c2)cc1; 2.05
2) S=c1nc2[nH]c3ccccc3c2n[nH]1; 95
3) N#C/C(=C\c1ccc2c(c1)OCO2)c1ccccc1; 41.4
4) Cn1c(=O)c2[nH]c(CC(=O)O)nc2n(C)c1=O; 108
5) CC(CO)(CO)C(=O)O; 104
6) Cc1c(Cl)cccc1N=C=S; 114
7) CC(C)(CC(=O)O)CC(=O)O; 103
8) CCN(Cc1ccc(Cl)c(Cl)c1)c1ccc2nc(N)nc(N)c2c1C; -78.2
9) ClCC(Cl)[C@@H]1CC2C=CC1C2 (stereo not given in full); 105
10) O=C(Oc1ccccc1Cl)c1ccc(Cl)cc1Cl; 98.9
11) CCOc1ccccc1NC(=O)CCl; 98.4
12) OC1Cc2ccccc2C1; 96.7
13) Ic1cccs1; 104
14) O=C(O)Cc1cccc2ccccc12; 102
15) CCOC(=O)/C(O)=C(\C=N\C(=S)Nc1ccc(Cl)c(Cl)c1)C(=O)OCC; 104
16) CC(C)N1CC(=O)N2CSCC2C1=O (stereo not given); 102
17) CCCOCc1cn[nH]n1; 109
18) O=C1NC(=O)/C(=C\c2ccncc2)N1; 99
19) CCOC(=O)/C(C#N)=C\c1c[nH]c2ccccc12; 115
20) O=S(Cc1ccccc1)/C(=C/NC(=S)Nc1ccccc1)c1ccccc1 (stereo not given); 104

Recorded values, source PubChem BioAssay (NCI).
